TARGET: T1, human IL-12RB1 with C-terminal FLAG tag, transiently expressed on HEK-293T cells (human, UniProt P42701 24-662)
T1 construct: whole, on cells
MEASUREMENT DESCRIPTION: FACS, periplasmic extract, HEK-293T

BINDER | READING UNIT | FOB
VHH263B1 (VHH) VHH: EVQLVESGGGLVQAGGSLRLSCAASGSKFSFNAMGWYRQTPGKQRELVAIIINGDMINYADSVKGRFTISRDNAKNTMYLQMNSLKPEDTAVYYCKMTRYVYDYWGQGTQVTVSS | fold | 105
VHH187B1 (VHH) VHH: EVQLVESGGGLVQPGGSLRLSCAASGFTLDYYAIGWFRQAPGKEREGVSCISSSDRSTWYADSVKGRFTISRDNAKNTVYLQMHSLKPEDTAVYYCATPCYSDYDPEGYEYDYWGQGTQVTVSS | fold | 86
VHH58B1 (VHH) VHH: QVQLVESGGGLVQAGGSLRLSCAAPGRYAVGWFRQAPGKEYEFVAAITVSGGSKYYEDSVKGRFAISRDNAKNTVYLQMNSLKAEDTAVYYCAARTPKFGSGWYNRRGEYDYWGQGTQVTVSS | fold | 82
